target: CCAAT/enhancer-binding protein beta (Homo sapiens); assay: ATG_C_EBP_CIS: Attagene CIS-FACTORIAL HepG2 Assay for human CCAAT/Enhancer Binding Protein (C/EBP) beta (AID 2282927); details: HepG2 Attagene cis-factorial transcription factor reporter; actives raise or lower the signal
Active and inactive are the calls of the source. Rule for the calls: active = hit-call score of the fitted dose curve at least 0.9, where 1 is the maximum; inactive = score below 0.9.
Classes used: 1 for active, 0 for inactive

molecule | labelClass
CC(C)[C@H](C(=O)O[C@H](C#N)c1cccc(Oc2ccccc2)c1)c1ccc(Cl)cc1 | 0
CC(C)=CC1C(C(=O)OCN2C(=O)C3=C(CCCC3)C2=O)C1(C)C (stereo not drawn) | 1
C#CCC1=C(C)C(OC(=O)C2C(C=C(C)C)C2(C)C)CC1=O (stereo not drawn) | 1
COc1cc(OC)nc(Sc2cccc(Cl)c2C(=O)O)n1 | 0
Nc1c(Cl)cc([N+](=O)[O-])cc1Cl | 1
CNc1cnn(-c2cccc(C(F)(F)F)c2)c(=O)c1Cl | 0
COc1cccc(C(=O)NN(C(=O)c2cc(C)cc(C)c2)C(C)(C)C)c1C | 0
Cc1ccn2nc(S(=O)(=O)Nc3c(F)cccc3F)nc2n1 | 0
CCOC(=O)CC(SP(=O)(OC)OC)C(=O)OCC (stereo not drawn) | 0
CNC(=O)Oc1cccc2c1OC(C)(C)O2 | 1
CCCOc1nn(C(=O)NS(=O)(=O)c2ccccc2C(=O)OC)c(=O)n1C | 0
CCCCSP(=O)(SCCCC)SCCCC | 0
CC(C)N(C(=O)SCC(Cl)=C(Cl)Cl)C(C)C | 1
CCCCOC(=O)c1ccccc1C(=O)O | 0
CN(C)NC(=O)CCC(=O)O | 0
CC1(C(=O)Nc2ccc(O)c(Cl)c2Cl)CCCCC1 | 0
CCc1cccc(CC)c1N(COC)C(=O)CCl | 1
CCNc1nc(Cl)nc(NC(C)(C)C#N)n1 | 0
O=c1ccc(=O)[nH][nH]1 | 0
CCCCOC(=O)[C@@H](C)Oc1ccc(Oc2ccc(C#N)cc2F)cc1 | 0
CCOP(=S)(OCC)Oc1cc(C)nc(C(C)C)n1 | 0
CON=C(C(=O)OC)c1ccccc1CON=C(C)c1cccc(C(F)(F)F)c1 | 1
CN(C)C(=O)Nc1cccc(C(F)(F)F)c1 | 0
C[N+]1(C)CCCCC1 | 0
O=C(O)c1cc(Oc2ccc(C(F)(F)F)cc2Cl)ccc1[N+](=O)[O-] | 0
COc1ccc(C(=CC(=O)N2CCOCC2)c2ccc(Cl)cc2)cc1OC | 1
CSc1nc(NC(C)C)nc(NC(C)C)n1 | 0
CCOP(=S)(OCC)Oc1ccc([N+](=O)[O-])cc1 | 1
CN(C)[C@@H]1C(=O)C(C(N)=O)=C(O)[C@@]2(O)C(=O)C3=C(O)c4c(O)cccc4[C@@](C)(O)[C@H]3[C@H](O)[C@@H]12 | 0
CC(COc1ccc(Oc2ccccc2)cc1)Oc1ccccn1 (stereo not drawn) | 1
CCC(=NOC/C=C/Cl)C1=C(O)CC(C2CCOCC2)CC1=O (stereo not drawn) | 0
CCOP(=S)(OCC)Oc1ccc2c(C)c(Cl)c(=O)oc2c1 | 0
CC(Oc1cccc(Cl)c1)C(=O)O (stereo not drawn) | 0
CSC1=N[C@@](C)(c2ccccc2)C(=O)N1Nc1ccccc1 | 1
CCCSP(=O)(OCC)SCCC | 0
CCOP(=O)(SC(C)CC)N1CCSC1=O (stereo not drawn) | 0
CCOP(=S)(Oc1cnc(C(C)(C)C)nc1)OC(C)C (stereo not drawn) | 1
CCCOCC(=Nc1ccc(Cl)cc1C(F)(F)F)n1ccnc1 | 0
Cc1cc(C2CC2)nc(Nc2ccccc2)n1 | 0
CSc1nnc(C(C)(C)C)c(=O)n1N | 0
CCOP(=O)(NC(C)C)Oc1ccc(SC)c(C)c1 (stereo not drawn) | 0
CC1=NNC(=O)N(/N=C/c2cccnc2)C1 | 0
CCC(CC)Nc1c([N+](=O)[O-])cc(C)c(C)c1[N+](=O)[O-] | 0
